The measurements presented in this section are drawn from PubChem BioAssay AID1259407.

- System: CCRIS mutagenicity, Ames/micronucleus/aberration tests
- PROCEDURE TEXT: CCRIS mutagenicity studies
- ASSAY SETUP: Test System: AMES SALMONELLA TYPHIMURIUM; Strain/Indicator: TA98; Metabolic Activation: HAMSTER, LIVER, S-9, AROCLOR 1254 (10%); Method: PREINCUBATION
Activity calls are given as the source filed them. How the calls were made is not given here.
Your reply should match one of these outcome classes. true = active, false = inactive

INPUT: Outcome? CCCN(CCC)C(=O)SCC
OUTPUT: false

INPUT: Outcome? OCCCBr
OUTPUT: false

INPUT: Outcome? O=c1[nH]c(=O)n(Cl)c(=O)n1Cl
OUTPUT: false

INPUT: Outcome? FC(Cl)(Cl)Cl
OUTPUT: false

INPUT: Outcome? O=C(O)c1ccccc1-c1c2ccc(=O)cc-2oc2cc(O)ccc12
OUTPUT: false

INPUT: Outcome? CCNc1cccc(O)c1
OUTPUT: true

INPUT: Outcome? CCCCCCCCCCCCOCC1CO1 (configuration not stated)
OUTPUT: false

INPUT: Outcome? CC(=O)OCCC(C)C
OUTPUT: false

INPUT: Outcome? CCCCCCC=O
OUTPUT: false

INPUT: Outcome? Nc1n[nH]c(N)n1
OUTPUT: false

INPUT: Outcome? O=C(O)CN(CCN(CC(=O)O)CC(=O)O)CC(=O)O
OUTPUT: false

INPUT: Outcome? C[CH2][Hg][S]c1ccccc1C(=O)O
OUTPUT: false

INPUT: Outcome? O=[N+]([O-])c1c(O)c(Cl)cc(Cl)c1Cl
OUTPUT: false

INPUT: Outcome? COc1cc(OC)c(OC)cc1C=O
OUTPUT: false

INPUT: Outcome? O=C(O)c1cccc(Cl)c1
OUTPUT: false

INPUT: Outcome? CC(COc1ccccc1)N(CCCl)Cc1ccccc1 (configuration not stated)
OUTPUT: true

INPUT: Outcome? O=P(Oc1ccccc1)(Oc1ccccc1)Oc1ccccc1
OUTPUT: false

INPUT: Outcome? O=[N+]([O-])c1cc([As](=O)(O)O)ccc1O
OUTPUT: false

INPUT: Outcome? C1CCC(NC2CCCCC2)CC1
OUTPUT: false

INPUT: Outcome? C=CC(=O)OCCCC
OUTPUT: false

INPUT: Outcome? Cc1ccco1
OUTPUT: false

INPUT: Outcome? Cc1ccc(S(=O)(=O)Oc2ccc(N=Nc3ccc(-c4ccc(N=Nc5c(O)ccc6cc(S(=O)(=O)O)cc(S(=O)(=O)O)c56)c(C)c4)cc3C)cc2)cc1
OUTPUT: true

---

- Test system: CCRIS mutagenicity, Ames/micronucleus/aberration tests
- PROCEDURE TEXT: CCRIS mutagenicity studies
- ASSAY SETUP: Test System: AMES SALMONELLA TYPHIMURIUM; Strain/Indicator: TA104; Metabolic Activation: NONE; Method: PREINCUBATION
The source made the active and inactive calls. No rule for the calls is given here.
Your reply should match one of these outcome classes. active, inactive

INPUT: Outcome? O=c1ccc2c(cc3ccc4cccc5ccc2c3c45)c1=O
OUTPUT: inactive

INPUT: Outcome? CC(C)(OOC(C)(C)c1ccccc1)c1ccccc1
OUTPUT: inactive

INPUT: Outcome? O=C=NCCCCCCN=C=O
OUTPUT: inactive

INPUT: Outcome? O=C1c2ccccc2C(=O)c2c1cc(O)c(CO)c2O
OUTPUT: active

INPUT: Outcome? O=C(O)c1cccc(Cl)c1
OUTPUT: inactive

INPUT: Outcome? O[C@H]1[C@H]2O[C@H]2c2c(c3ccccc3c3ccccc23)[C@@H]1O
OUTPUT: active

INPUT: Outcome? NC1=CC(=O)C(=O)c2ccccc21
OUTPUT: active

INPUT: Outcome? O=C(Cl)c1c(Cl)cccc1Cl
OUTPUT: inactive

INPUT: Outcome? O=C(O)C(=O)C(=O)O
OUTPUT: inactive

INPUT: Outcome? CC(C)=CCC1=C(O)c2ccccc2C(=O)C1=O
OUTPUT: inactive

INPUT: Outcome? C=CC=O
OUTPUT: active

INPUT: Outcome? O=C(O)c1ccc(O)cc1
OUTPUT: inactive

INPUT: Outcome? Cc1ccco1
OUTPUT: inactive

INPUT: Outcome? O=C(Cl)c1ccccc1
OUTPUT: active

INPUT: Outcome? O=C(O)c1c(Cl)cccc1Cl
OUTPUT: inactive

INPUT: Outcome? O=Cc1ccc(Cl)cc1
OUTPUT: inactive

INPUT: Outcome? COC1=C(OC)C(=O)C(C)=CC1=O
OUTPUT: inactive

INPUT: Outcome? O=C(O)CN(CCN(CC(=O)O)CC(=O)O)CC(=O)O
OUTPUT: inactive

INPUT: Outcome? Cc1c2c(cc3ccccc13)-c1ccccc1C1NC21 (stereo not drawn)
OUTPUT: active

INPUT: Outcome? O=C(O)c1ccccc1Cl
OUTPUT: inactive

INPUT: Outcome? C=C1C[C@@]23CC[C@H]4[C@@](C)(CCC[C@@]4(C)C(=O)O[C@@H]4O[C@H](CO)[C@@H](O)[C@H](O)[C@H]4O)[C@@H]2CC[C@]1(O[C@@H]1O[C@H](CO)[C@@H](O)[C@H](O)[C@H]1O[C@@H]1O[C@H](CO)[C@@H](O)[C@H](O)[C@H]1O)C3
OUTPUT: inactive

INPUT: Outcome? NCC(=O)CCC(=O)O
OUTPUT: active

INPUT: Outcome? CCCC=O
OUTPUT: inactive

INPUT: Outcome? COc1cc(OC)c(OC)cc1C=O
OUTPUT: inactive

INPUT: Outcome? N#CCc1ccc(Cl)cc1
OUTPUT: inactive

INPUT: Outcome? CC(Cl)CCl (stereo not drawn)
OUTPUT: inactive

INPUT: Outcome? CCOc1cc(C=O)ccc1O
OUTPUT: inactive

INPUT: Outcome? Cc1ccc(N)c(S(=O)(=O)O)c1
OUTPUT: inactive
